Origin of values: patent US20100216779A1

Tested on: various cell lines of different tumor origins
Assay: Inhibition of cell proliferation, InCell Analyzer assay
Assay type: cell-based
Conditions: Homo sapiens, SAOS-2, SaOS-2, Sarcoma
Description: C. Inhibition of Cell Proliferation For InCell Analyser assay, various cell lines of different tumor origins were grown to 70-80% confluency in appropriate culture media containing 10% fetal bovine serum at 37° C. in a 5% CO2 incubator. […] By counting the number of nuclei, the proliferation index of compound treated groups were calculated as a percentage relative to the DMSO control, which was set to 100%. The IC50 values were calculated using model 205 in ExcelFit.
readout label: IC50

Entry COc1cc(N2CCC(N3CCCCC3)CC2)ccc1Nc1nccc(-c2c(-c3cccc(C(=O)Nc4c(F)cccc4F)c3)nc3ccccn23)n1 , various cell lines of different tumor origins data, IC50 value: < 1000 nM

----------
Tested on: various cell lines of different tumor origins
Experiment: Inhibition of cell proliferation, InCell Analyzer assay
Type: cell-based
Details: Homo sapiens, 786-0, 786-0, Kidney
Description: C. Inhibition of Cell Proliferation For InCell Analyser assay, various cell lines of different tumor origins were grown to 70-80% confluency in appropriate culture media containing 10% fetal bovine serum at 37° C. in a 5% CO2 incubator. […] By counting the number of nuclei, the proliferation index of compound treated groups were calculated as a percentage relative to the DMSO control, which was set to 100%. The IC50 values were calculated using model 205 in ExcelFit.
readout label: IC50

Given item COc1cc(N2CCC(N3CCCCC3)CC2)ccc1Nc1nccc(-c2c(-c3cccc(C(=O)Nc4c(F)cccc4F)c3)nc3ccccn23)n1 , the value recorded as its IC50 is 1 to 5 µM

----------
molecular target: human IGF-1R (NIH-3T3 cells over expressing human IGF-1R) (Homo sapiens, UniProt P08069); test: IGF-1R cellular autophosphorylation (DELFIA); details: IGF-1 stimulated
Sequence (P08069 31-1367): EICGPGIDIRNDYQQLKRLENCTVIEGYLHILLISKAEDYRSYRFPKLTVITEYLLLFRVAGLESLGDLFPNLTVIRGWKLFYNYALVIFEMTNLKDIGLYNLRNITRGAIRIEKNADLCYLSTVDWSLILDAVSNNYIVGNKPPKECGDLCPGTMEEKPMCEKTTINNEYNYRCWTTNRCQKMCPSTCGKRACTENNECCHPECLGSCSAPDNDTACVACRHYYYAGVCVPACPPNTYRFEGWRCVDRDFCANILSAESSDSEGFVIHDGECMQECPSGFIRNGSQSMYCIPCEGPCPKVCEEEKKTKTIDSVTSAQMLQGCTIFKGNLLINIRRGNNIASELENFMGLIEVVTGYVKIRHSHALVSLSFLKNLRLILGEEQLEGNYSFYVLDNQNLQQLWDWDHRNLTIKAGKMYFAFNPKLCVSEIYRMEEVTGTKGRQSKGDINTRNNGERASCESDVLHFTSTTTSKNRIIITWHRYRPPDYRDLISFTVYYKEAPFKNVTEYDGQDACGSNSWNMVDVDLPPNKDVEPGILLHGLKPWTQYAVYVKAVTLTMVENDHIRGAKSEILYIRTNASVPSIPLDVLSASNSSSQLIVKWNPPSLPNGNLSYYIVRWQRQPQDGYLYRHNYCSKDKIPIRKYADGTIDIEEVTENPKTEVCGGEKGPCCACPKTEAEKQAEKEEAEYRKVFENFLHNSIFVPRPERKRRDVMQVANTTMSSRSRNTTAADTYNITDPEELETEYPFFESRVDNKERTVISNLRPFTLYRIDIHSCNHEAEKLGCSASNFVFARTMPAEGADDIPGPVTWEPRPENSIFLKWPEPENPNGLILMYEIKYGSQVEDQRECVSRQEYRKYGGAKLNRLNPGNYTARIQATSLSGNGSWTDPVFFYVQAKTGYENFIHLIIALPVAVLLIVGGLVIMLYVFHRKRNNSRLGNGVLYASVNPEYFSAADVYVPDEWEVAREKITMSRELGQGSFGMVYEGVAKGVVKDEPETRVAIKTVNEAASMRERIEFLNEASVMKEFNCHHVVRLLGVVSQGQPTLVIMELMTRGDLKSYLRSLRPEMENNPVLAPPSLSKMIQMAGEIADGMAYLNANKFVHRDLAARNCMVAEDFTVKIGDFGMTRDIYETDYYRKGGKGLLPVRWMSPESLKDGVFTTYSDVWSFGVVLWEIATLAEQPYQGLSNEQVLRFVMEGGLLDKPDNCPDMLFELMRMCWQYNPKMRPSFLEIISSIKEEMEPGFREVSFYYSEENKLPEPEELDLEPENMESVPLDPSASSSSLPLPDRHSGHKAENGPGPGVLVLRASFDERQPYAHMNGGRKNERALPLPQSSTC
pIC50: −log10 of the molar value.
readout label: pIC50

The following compounds have reported results that may help.
1. COc1cc(N2CCC(N3CCCCC3)CC2)ccc1Nc1nccc(-c2c(-c3cccc(C(=O)Nc4c(F)cccc4F)c3)nc3cc(C)ccn23)n1; > 7.00
2. CCCN1CCC(c2ccc(Nc3nccc(-c4c(-c5ccc(OCC)c(C(=O)Nc6c(F)cccc6F)c5)nc5ccccn45)n3)c(OCC)c2)CC1; > 7.00
3. CCCN1CCN(c2ccc(Nc3nccc(-c4c(-c5cccc(C(=O)Nc6c(F)cccc6F)c5)nc5ccccn45)n3)c(OCC)c2)CC1; 6.30 to 7.00
4. COc1cc(-c2nnc(CN3CCCC3)o2)ccc1Nc1nccc(-c2c(-c3ccc(OC)c(C(=O)Nc4c(F)cccc4F)c3)nc3ccccn23)n1; 6.30 to 7.00
5. COc1cc(N2CCC(N3CCC(O)CC3)CC2)ccc1Nc1nccc(-c2c(-c3ccc(OC)c(C(=O)Nc4c(F)cccc4F)c3)nc3ccccn23)n1; > 7.00

Given item COc1cc(N2CCC(CN3CCCCC3)CC2)ccc1Nc1nccc(-c2c(-c3cccc(C(=O)Nc4c(F)cccc4F)c3)nc3ccccn23)n1 , the value recorded as its pIC50 is > 7.00

Given item CCOc1ccc(-c2nc3ccccn3c2-c2ccnc(Nc3ccc(N4CCN(C(C)C)CC4)cc3OC)n2)cc1C(=O)Nc1c(F)cccc1F , the value recorded as its pIC50 is > 7.00
